# test target: SARM1 (Homo sapiens, UniProt Q6SZW1)
# Construct: inventors produced full-length SARM1 for NAD enzyme activity experiments, and used it for screening; His (C); made in house; host or cells: HEK293 cells, transient transfection; supernatant of digitonin lysate, no further purification described
# Sequence (Q6SZW1 28-724, species assumed): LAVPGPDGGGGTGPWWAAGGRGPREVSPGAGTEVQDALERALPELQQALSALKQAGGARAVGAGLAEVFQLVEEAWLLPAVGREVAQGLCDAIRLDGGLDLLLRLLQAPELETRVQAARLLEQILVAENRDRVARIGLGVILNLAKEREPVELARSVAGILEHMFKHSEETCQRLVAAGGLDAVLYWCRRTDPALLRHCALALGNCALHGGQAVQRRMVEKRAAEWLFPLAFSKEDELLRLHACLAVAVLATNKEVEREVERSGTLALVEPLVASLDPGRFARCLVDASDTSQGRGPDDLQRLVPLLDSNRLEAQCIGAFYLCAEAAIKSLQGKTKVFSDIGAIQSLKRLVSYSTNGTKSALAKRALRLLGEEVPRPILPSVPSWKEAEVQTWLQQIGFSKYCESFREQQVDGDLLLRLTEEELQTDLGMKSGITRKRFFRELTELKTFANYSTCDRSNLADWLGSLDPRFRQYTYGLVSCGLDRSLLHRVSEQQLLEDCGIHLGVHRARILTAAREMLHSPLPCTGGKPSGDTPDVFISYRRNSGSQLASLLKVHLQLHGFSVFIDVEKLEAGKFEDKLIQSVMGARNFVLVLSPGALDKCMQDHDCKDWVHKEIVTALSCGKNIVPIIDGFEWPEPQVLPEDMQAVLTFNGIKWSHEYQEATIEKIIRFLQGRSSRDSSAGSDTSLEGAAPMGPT
# assay notes: In vitro biochemical assay for inhibiting SARM1 enzyme activity (PC6 fluorescence, NADase)
# setup conditions: full-length SARM1 from transfected HEK293 cells; 50 µM NAD, 50 µM PC6, 50 µM NMN activator; room temperature, 30 minutes; read-out: IC50
property name: IC50

Please give measured IC50 of the following entry: O=C(CCc1cccc(Cl)c1)Nc1ccc2c(c1)COc1cnccc1-2 < 0.1 µM

Consider the compound O=C(NCc1cccc(Cl)c1)Nc1ccc2c(c1)COc1cnccc1-2 and give its recorded IC50. 1 to 10 µM

Return reported IC50. Input compound: CN(Cc1ccc(F)cc1)C(=O)Nc1cnc2c(c1)COc1cnccc1-2 < 0.1 µM

Name the recorded IC50 of the item CC1Oc2cnccc2-c2ccc(N3CCC(Cc4ccc(F)cc4)C3=O)cc21 (stereo not drawn) in your answer. < 0.1 µM

Give recorded IC50. Cc1ccc(CC2CCN(c3ccc4c(c3)COc3cnccc3-4)C2=O)cc1 (stereo not drawn) 1 to 10 µM

Dear colleague, please send me the reported IC50 for O=C(CCc1cc(F)c(Cl)c(F)c1)Nc1ccc2c(c1)COc1cnccc1-2 when you can. < 0.1 µM

Note down IC50 recorded for O=C(CCc1ccc(OC(F)(F)F)cc1)Nc1ccc2c(c1)COc1cnccc1-2 0.1 to 1 µM

State its IC50: O=C1C(Cc2ccc(F)cc2)CCCN1c1ccc2c(c1)COc1cnccc1-2 (stereo not drawn) 0.1 to 1 µM

In one line, give reported IC50 of the entry N#Cc1ccc(CC2CCN(c3ccc4c(c3)COc3cnccc3-4)C2=O)cc1 (stereo not drawn) . 1 to 10 µM

The values you see were collected from patent EP4782449A1.
